CTG-3D luminescence at 96 h overview
# System: HCI-012 (organoid from a breast cancer xenograft)
# assay explanation: CTG-3D luminescence at 96 h relative to day-0 seeding control (ratio to day 0); higher = more growth / less cytotoxicity; PDxO 3D drug screen (set 2), 96 h, CTG-3D normalised to day-0 seeding control.
# run parameters: 625 fM; days in culture: 243
Give the value as a plain number.

Example molecules with recorded CTG-3D luminescence at 96 h:
[
  {
    "molecule": "CC(=O)O[C@@]12CO[C@@H]1C[C@H](O)[C@@]1(C)C(=O)[C@H](O)C3=C(C)[C@@H](OC(=O)[C@H](O)[C@@H](NC(=O)OC(C)(C)C)c4ccccc4)C[C@@](O)([C@@H](OC(=O)c4ccccc4)[C@H]21)C3(C)C [docetaxel]",
    "CTG-3D luminescence at 96 h": 1.69
  },
  {
    "molecule": "CC(C)n1nc(-c2ccc3oc(N)nc3c2)c2c(N)ncnc21 [sapanisertib]",
    "CTG-3D luminescence at 96 h": 3.05
  },
  {
    "molecule": "COc1cccc2c1C(=O)c1c(O)c3c(c(O)c1C2=O)C[C@@](O)(C(=O)CO)C[C@@H]3O[C@H]1C[C@H](N)[C@@H](O)[C@H](C)O1 [epirubicin]",
    "CTG-3D luminescence at 96 h": 2.23
  }
]

// returns reported CTG-3D luminescence at 96 h for input CS(=O)(=O)CCNCc1ccc(-c2ccc3ncnc(Nc4ccc(OCc5cccc(F)c5)c(Cl)c4)c3c2)o1 [lapatinib]
2.33

// returns reported CTG-3D luminescence at 96 h for input Cc1c(CN2CCN(C(=O)[C@H](C)O)CC2)sc2c(N3CCOCC3)nc(-c3cnc(N)nc3)nc12 [apitolisib]
2.51
